The values you see were collected from patent US10047131B2.

- assay.target: HLA-A*02:01 (Homo sapiens, UniProt P04439, D140Y/D185E/D98H/E176V/E277Q/G131W/G231S/I119V/I121R/I166T/I218V/L300P/L318F/N151K/N90K/P208A/P217A/Q86G/Q94H/R138H/R169H/T345S)
- test.description: MHC binding assay (UV-ligand exchange, ELISA of exchange yield)
- condition.summary: binding to HLA-A*02:01, UV-ligand exchange
reported.metric: Peptide exchange (MHC class I binding score, peptide exchange yield)

// below: answered substances
362 (TLYGLSVLL; listed as Homo sapiens) [compound 362]; “+++” (≥50 = +++)
448 (NLLETKLQL; listed as Homo sapiens) [compound 448]; “+++” (≥50 = +++)
559 (VTVPPGPSL; listed as Homo sapiens) [compound 559]; “++” (≥20% = ++)
456 (LLIGHLERV; listed as Homo sapiens) [compound 456]; “+++” (≥50 = +++)
355 (SIQQSIERLLV; listed as Homo sapiens) [compound 355]; “++” (≥20% = ++)
131 (FVPPVTVFPSL; listed as Homo sapiens) [compound 131]; “++” (≥20% = ++)

Q) // returns reported Peptide exchange (MHC class I binding score, peptide exchange yield) for input 525 (VLLEAGEGLVTI; listed as Homo sapiens) [compound 525]
A) “+++” (≥50 = +++)

Q) // returns reported Peptide exchange (MHC class I binding score, peptide exchange yield) for input 42 (VLLQKIVSA; listed as Homo sapiens) [compound 42]
A) “+++” (≥50 = +++)

Q) // returns reported Peptide exchange (MHC class I binding score, peptide exchange yield) for input 620 (KLLNKIYEA; listed as Homo sapiens) [compound 620]
A) “++++” (≥75% = ++++)

Q) // returns reported Peptide exchange (MHC class I binding score, peptide exchange yield) for input 236 (GLLEAKVSL; listed as Homo sapiens) [compound 236]
A) “+++” (≥50 = +++)

Q) // returns reported Peptide exchange (MHC class I binding score, peptide exchange yield) for input 600 (ALAAPDIVPAL; listed as Homo sapiens) [compound 600]
A) “+++” (≥50 = +++)

Q) // returns reported Peptide exchange (MHC class I binding score, peptide exchange yield) for input 442 (GLLGGGGVLGV; listed as Homo sapiens) [compound 442]
A) “+++” (≥50 = +++)

Q) // returns reported Peptide exchange (MHC class I binding score, peptide exchange yield) for input 196 (YLYSVEIKL; listed as Homo sapiens) [compound 196]
A) “++++” (≥75% = ++++)

Q) // returns reported Peptide exchange (MHC class I binding score, peptide exchange yield) for input 371 (FLQAHLHTA; listed as Homo sapiens) [compound 371]
A) “++++” (≥75% = ++++)

Q) // returns reported Peptide exchange (MHC class I binding score, peptide exchange yield) for input 162 (YQQAQVPSV; listed as Homo sapiens) [compound 162]
A) “+++” (≥50 = +++)

Q) // returns reported Peptide exchange (MHC class I binding score, peptide exchange yield) for input 508 (ILAQEQLVVGV; listed as Homo sapiens) [compound 508]
A) “+++” (≥50 = +++)

Q) // returns reported Peptide exchange (MHC class I binding score, peptide exchange yield) for input 166 (YLNHLEPPV; listed as Homo sapiens) [compound 166]
A) “+++” (≥50 = +++)

Q) // returns reported Peptide exchange (MHC class I binding score, peptide exchange yield) for input 51 (LLPDLEFYV; listed as Homo sapiens) [compound 51]
A) “++++” (≥75% = ++++)

Q) // returns reported Peptide exchange (MHC class I binding score, peptide exchange yield) for input 543 (GLLPTPITQQASL; listed as Homo sapiens) [compound 543]
A) “+++” (≥50 = +++)

Q) // returns reported Peptide exchange (MHC class I binding score, peptide exchange yield) for input 301 (FLVEDLVDSL; listed as Homo sapiens) [compound 301]
A) “+++” (≥50 = +++)

Q) // returns reported Peptide exchange (MHC class I binding score, peptide exchange yield) for input 110 (FLSQVDFEL; listed as Homo sapiens) [compound 110]
A) “+++” (≥50 = +++)

Q) // returns reported Peptide exchange (MHC class I binding score, peptide exchange yield) for input 251 (ALYTGFSILV; listed as Homo sapiens) [compound 251]
A) “++” (≥20% = ++)

Q) // returns reported Peptide exchange (MHC class I binding score, peptide exchange yield) for input 145 (FLATSGTLAGI; listed as Homo sapiens) [compound 145]
A) “++” (≥20% = ++)

----------
- assay.target: HLA-A*02:01 (Homo sapiens, UniProt P04439, D140Y/D185E/D98H/E176V/E277Q/G131W/G231S/I119V/I121R/I166T/I218V/L300P/L318F/N151K/N90K/P208A/P217A/Q86G/Q94H/R138H/R169H/T345S)
- test.description: MHC binding assay (UV-ligand exchange, ELISA of exchange yield)
- condition.summary: binding to HLA-A*02:01, UV-ligand exchange
reported.metric: Peptide exchange (MHC class I binding score, peptide exchange yield)

// below: answered substances
446 (QLIPALAKV; listed as Homo sapiens) [compound 446]; “+++” (≥50 = +++)
274 (SLLFSLFEA; listed as Homo sapiens) [compound 274]; “++” (≥20% = ++)
174 (ALAQYLITA; listed as Homo sapiens) [compound 174]; “+++” (≥50 = +++)
511 (FLDPYCSASV; listed as Homo sapiens) [compound 511]; “++” (≥20% = ++)
605 (KLYEAVPQL; listed as Homo sapiens) [compound 605]; “+++” (≥50 = +++)

Q) // returns reported Peptide exchange (MHC class I binding score, peptide exchange yield) for input 45 (SLWQDIPDV; listed as Homo sapiens) [compound 45]
A) “+++” (≥50 = +++)

Q) // returns reported Peptide exchange (MHC class I binding score, peptide exchange yield) for input 485 (NVPDSFNEV; listed as Homo sapiens) [compound 485]
A) “+++” (≥50 = +++)

Q) // returns reported Peptide exchange (MHC class I binding score, peptide exchange yield) for input 212 (ALWDQDNLSV; listed as Homo sapiens) [compound 212]
A) “++” (≥20% = ++)

Q) // returns reported Peptide exchange (MHC class I binding score, peptide exchange yield) for input 197 (ALGPEGGRV; listed as Homo sapiens) [compound 197]
A) “++” (≥20% = ++)

Q) // returns reported Peptide exchange (MHC class I binding score, peptide exchange yield) for input 188 (GLFPVTPEAV; listed as Homo sapiens) [compound 188]
A) “+++” (≥50 = +++)

Q) // returns reported Peptide exchange (MHC class I binding score, peptide exchange yield) for input 350 (ALLDVTHSELTV; listed as Homo sapiens) [compound 350]
A) “+++” (≥50 = +++)

Q) // returns reported Peptide exchange (MHC class I binding score, peptide exchange yield) for input 473 (AMATESILHFA; listed as Homo sapiens) [compound 473]
A) “+++” (≥50 = +++)

----------
- assay.target: HLA-A*02:01 (Homo sapiens, UniProt P04439, D140Y/D185E/D98H/E176V/E277Q/G131W/G231S/I119V/I121R/I166T/I218V/L300P/L318F/N151K/N90K/P208A/P217A/Q86G/Q94H/R138H/R169H/T345S)
- test.description: MHC binding assay (UV-ligand exchange, ELISA of exchange yield)
- condition.summary: binding to HLA-A*02:01, UV-ligand exchange
reported.metric: Peptide exchange (MHC class I binding score, peptide exchange yield)

// below: answered substances
369 (GLFPEHLIDV; listed as Homo sapiens) [compound 369]; “+++” (≥50 = +++)
342 (HIYDKVMTV; listed as Homo sapiens) [compound 342]; “+++” (≥50 = +++)
576 (ILLNNSGQIKL; listed as Homo sapiens) [compound 576]; “++++” (≥75% = ++++)
30 (LILDWVPYI; listed as Homo sapiens) [compound 30]; “+++” (≥50 = +++)
123 (NLWDLTDASVV; listed as Homo sapiens) [compound 123]; “+++” (≥50 = +++)
27 (ILADIVISA; listed as Homo sapiens) [compound 27]; “+++” (≥50 = +++)
352 (SLLELLHIYV; listed as Homo sapiens) [compound 352]; “+++” (≥50 = +++)
164 (ALLPQPKNLTV; listed as Homo sapiens) [compound 164]; “+++” (≥50 = +++)
553 (SLLNQDLHWSL; listed as Homo sapiens) [compound 553]; “++++” (≥75% = ++++)
573 (ILVANAIVGV; listed as Homo sapiens) [compound 573]; “+++” (≥50 = +++)

Q) // returns reported Peptide exchange (MHC class I binding score, peptide exchange yield) for input 356 (KLLGKLPEL; listed as Homo sapiens) [compound 356]
A) “+++” (≥50 = +++)

Q) // returns reported Peptide exchange (MHC class I binding score, peptide exchange yield) for input 83 (ILAPTVMMI; listed as Homo sapiens) [compound 83]
A) “+++” (≥50 = +++)
